This collection of values is drawn from ChEMBL document CHEMBL4229363.

- experimental_target: Beta-1 adrenergic receptor (Homo sapiens, UniProt P08588)
- Sequence (P08588 whole entry): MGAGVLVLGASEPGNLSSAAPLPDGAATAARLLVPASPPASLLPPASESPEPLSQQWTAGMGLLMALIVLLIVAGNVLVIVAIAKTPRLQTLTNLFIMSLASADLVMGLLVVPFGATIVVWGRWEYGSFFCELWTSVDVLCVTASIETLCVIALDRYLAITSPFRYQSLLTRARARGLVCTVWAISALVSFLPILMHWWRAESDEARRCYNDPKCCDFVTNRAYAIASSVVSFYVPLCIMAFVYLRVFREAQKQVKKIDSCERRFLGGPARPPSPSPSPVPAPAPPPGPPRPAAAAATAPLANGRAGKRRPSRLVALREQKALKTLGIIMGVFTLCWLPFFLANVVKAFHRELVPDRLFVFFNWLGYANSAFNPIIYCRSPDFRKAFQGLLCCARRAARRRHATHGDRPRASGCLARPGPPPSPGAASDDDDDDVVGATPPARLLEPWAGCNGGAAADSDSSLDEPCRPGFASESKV
- assay_remarks: Antagonist activity at human beta1 adrenergic receptor expressed in HEK293 cells co-expressing Galpha16 assessed as inhibition of isoproterenol-induced intercellular calcium mobilization pre-incubated for 10 mins before isoproterenol addition by Fluo-4AM dye-based fluorescence assay
- condition_label: read-out: EC50 (the source's name)
value_kind: pIC50
To interpret pIC50, take it as minus log10 of a concentration measured in moles per litre.

The following compounds have reported results that may help.
chemical_structure=CC(=O)NCc1cccc(OC[C@@H](O)CNCCc2ccc(NC(=O)Cc3ccccc3)cc2)c1 experimental_result=5.21
chemical_structure=O=C(Cc1ccccc1)Nc1ccc(CCNC[C@H](O)COc2cccc3[nH]ccc23)cc1 experimental_result=8.12
chemical_structure=CC(=O)NCc1cccc(OC[C@@H](O)CNCCc2ccc(NS(=O)(=O)Nc3ccccc3)cc2)c1 experimental_result=6.65
chemical_structure=O=S(=O)(Nc1ccc(CCNC[C@H](O)COc2cccc3[nH]ccc23)cc1)c1ccccc1 experimental_result=7.83
chemical_structure=O=C(Nc1ccccc1)Nc1ccc(CCNC[C@H](O)COc2cccc3[nH]ccc23)cc1 experimental_result=8.54
chemical_structure=CCc1ccccc1OC[C@@H](O)CNCCc1ccc(NC(=O)Nc2ccccc2)cc1 experimental_result=6.37

Turning now to a further compound:
query: Name the recorded pIC50 for `CC(=O)NCc1cccc(OC[C@@H](O)CNCCc2ccc(NC(=O)Nc3ccccc3)cc2)c1` .
result: 4.90
